measurement-protocol: PhoP-dependent GFP reporter repression – Salmonella Typhimurium, primary screen (AID 1863);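 further: 0% = low Mg2+ inducing control and 100% = high Mg2+ repressing control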
condition-set: S. Typhimurium PhoP-regulated promoter GFP reporter, 4 h; at 50 µM; stronger effect = higher value
Hit rate of the full screen: of about 300,000 compounds, about 480 (0.16%) were called active. A selection follows. Results with a measured potency or affinity are listed apart.
attribute-measured: inhibition (%)
Quick reminder: number only, in %, skip the unit.

Observe how each entry below is paired with its result.
CCOC(=O)c1cn(CC)c2cc3c(cc2c1=O)OCO3	7.75
Cc1ccc(N(CC(=O)NC2CCCCC2)S(=O)(=O)c2c(C)noc2C)cc1	6.34
COc1cccc(/C=N/NC(=O)c2ccc(CN3c4cccc5cccc(c45)S3(=O)=O)cc2)c1	-6.43
CCn1cc(C(=O)O)c(=O)c2cnc(N3CCN(C(=S)Nc4ccccc4Cl)CC3)nc21	14.7

Returns the measured inhibition for the input compound. Input: `CC(C)C[C@H](NC(=O)c1nc[nH]c1C(=O)NCCCCCNC(=O)OC(C)(C)C)C(=O)OCc1ccccc1`
-4.74

Returns the measured inhibition for the input compound. Input: CCN(CC)CCCNC(=O)c1c(O)c2cc(F)cc3c2n(c1=O)C(C)CC3 (stereo not drawn)
8.52

Returns the measured inhibition for the input compound. Input: `CC(C)C(=O)NC(=S)Nc1ccccn1`
1.05

Returns the measured inhibition for the input compound. Input: `COC(=O)COC(=O)c1ccc(O)cc1`
-6.41

Returns the measured inhibition for the input compound. Input: COC(=O)C1=CO[C@@H](OC2OC(CO)C(O)C(O)C2O)[C@@H]2[C@@H](C)[C@@H](O)C[C@H]12 (stereo partly drawn)
-2.72

Returns the measured inhibition for the input compound. Input: `Cc1ccccc1CS(=O)(=O)c1ccc(C(=O)N2CCC(C)CC2)cc1[N+](=O)[O-]`
1.32

Returns the measured inhibition for the input compound. Input: COc1cc(/C=C2/CC(C)OC2=O)c([N+](=O)[O-])cc1OC (stereo not drawn)
0.79

Returns the measured inhibition for the input compound. Input: `Cc1ccc(NC(=O)Nc2ccon2)cc1Cl`
0.2

FYI, the data here is from PubChem BioAssay AID1863.
